Tested on: FGFR2
APPLIED CONDITIONS: concentration: 1 μM, replicates: in singlicate; n = 1;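 note: KINOMEscan kinase panel screen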
We begin with a simple list: items and their reported %Inh.
Give just the number in %; leave the unit off.

Looking for the measured %Inh of Cc1c2ccc(N(C)c3ccnc(Nc4cccc(S(N)(=O)=O)c4)n3)cc2nn1Cc1ccccc1.Cl.Cl [GW787226] , can you help?
85

Looking for the measured %Inh of c1ccc(-c2cc(-c3c[nH]nc3-c3ccccn3)ccn2)cc1 [GW576604] , can you help?
0

Looking for the measured %Inh of Cc1nnc(-c2ccc3occ(-c4ccc(C(C)O)cc4)c3c2)o1 (stereo not drawn) , can you help?
16

Looking for the measured %Inh of COc1cc(Nc2nccc(N3CCC(NC(=O)c4cccc(NC(C)=O)c4)C3)n2)cc(OC)c1OC (stereo not drawn) [GSK1379754] , can you help?
21

Looking for the measured %Inh of Nc1nc(-c2ccc3c(N)n[nH]c3c2)cc(N2CCCC2)n1 [GSK2227430] , can you help?
38

Looking for the measured %Inh of `Cc1ccc(C(=O)NCC(N)=O)cc1-n1c(C)cc(OCc2ccc(F)cc2F)c(Br)c1=O` , can you help?
32

---

Test system: YES
Construct: gene YES1
APPLIED CONDITIONS: concentration: 1 μM, replicates: in singlicate; n = 1
RECORDED METRIC: %Inh (%)
Give just the number in %; leave the unit off.

Previously resolved entries follow.
>  <COMPOUND>
O=C(c1ccc(-c2cc(-c3c[nH]nc3-c3ccccn3)ccn2)cc1)N1CCOCC1 [GW812171]

>  <ASSAYED SYSTEM>
YES

>  <RECORDED METRIC>
%Inh

>  <OBSERVED MEASUREMENT>
0

$$$$
>  <COMPOUND>
NCC(NC(=O)c1cc(-c2cn[nH]c2)c(-c2ccnc3[nH]ccc23)s1)c1ccccc1.O=C(O)C(F)(F)F.O=C(O)C(F)(F)F (stereo not shown) [GSK1325775]

>  <ASSAYED SYSTEM>
YES

>  <RECORDED METRIC>
%Inh

>  <OBSERVED MEASUREMENT>
0

$$$$

Would you kindly look at the next entry?
Looking for the measured %Inh of CN(C1=C(c2ccccc2)C(=O)NC1=O)c1ccccc1 [SB-334860] , can you help?
17

---

We begin with a simple list: items and their reported %Inh.
Test system: RIPK2
APPLIED CONDITIONS: concentration: 1 μM, replicates: in singlicate; n = 1
Give just the number in %; leave the unit off.

>  <COMPOUND>
c1ccc(-c2n[nH]cc2-c2ccnc3ccccc23)nc1 [GW271431]

>  <ASSAYED SYSTEM>
RIPK2

>  <OBSERVED MEASUREMENT>
23

$$$$
>  <COMPOUND>
Cn1ccc2ncnc(Oc3ccc(NC(=O)Nc4ccncc4)c(Cl)c3)c21

>  <ASSAYED SYSTEM>
RIPK2

>  <OBSERVED MEASUREMENT>
0

$$$$
>  <COMPOUND>
Cc1c(Cn2c(C)nn3c(=O)cc(N4CCOC(C)C4)nc23)cccc1C(F)(F)F (stereo not drawn) [GSK2344444]

>  <ASSAYED SYSTEM>
RIPK2

>  <OBSERVED MEASUREMENT>
0

$$$$
>  <COMPOUND>
COCCNC(=O)c1ccc(-c2cc(C(=O)NC3CC3)cc(F)c2C)cc1 [GW868318]

>  <ASSAYED SYSTEM>
RIPK2

>  <OBSERVED MEASUREMENT>
8

$$$$
>  <COMPOUND>
NCCNS(=O)(=O)c1ccc(-c2ccnc3[nH]ccc23)cc1 [GSK977617]

>  <ASSAYED SYSTEM>
RIPK2

>  <OBSERVED MEASUREMENT>
0

$$$$

Looking for the measured %Inh of NS(=O)(=O)CCc1cccc(Nc2nccc(-c3c(-c4cccc(NC(=O)c5c(F)cccc5F)c4)nn4ccccc34)n2)c1 [GSK336735] , can you help?
97.9

Looking for the measured %Inh of C[C@@H](Oc1cc(-n2cnc3ccc(NC(=O)NC(C)(C)C)cc32)sc1C(N)=O)c1ccccc1Cl [GSK346294] , can you help?
14

Looking for the measured %Inh of N#Cc1ccc(-c2cc(-c3c[nH]nc3-c3ccccn3)ccn2)cc1 [GW693028] , can you help?
49

Looking for the measured %Inh of O=C1NC(=O)C(N2CCc3ccccc32)=C1c1cccc(Cl)c1 [SB-408010] , can you help?
0
